Values from patent US10131653B2

Biological target: human OX1 receptor (Homo sapiens)
Construct: expressed in transfected cells; host or cells: CHO cells
Sequence (O43613 whole entry): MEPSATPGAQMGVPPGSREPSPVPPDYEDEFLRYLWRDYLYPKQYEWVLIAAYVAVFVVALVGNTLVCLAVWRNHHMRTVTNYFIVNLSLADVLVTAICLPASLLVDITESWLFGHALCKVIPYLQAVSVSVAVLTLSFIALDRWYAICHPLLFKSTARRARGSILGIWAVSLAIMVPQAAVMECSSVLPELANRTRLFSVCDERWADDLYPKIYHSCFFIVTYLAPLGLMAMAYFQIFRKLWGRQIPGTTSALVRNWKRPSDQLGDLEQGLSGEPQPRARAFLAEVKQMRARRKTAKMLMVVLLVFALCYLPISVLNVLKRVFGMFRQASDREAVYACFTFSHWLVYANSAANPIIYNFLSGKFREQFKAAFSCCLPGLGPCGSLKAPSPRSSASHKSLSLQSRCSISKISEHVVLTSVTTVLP
Assay: Measurement of orexin receptor antagonistic activity (calcium fluorescence, FLIPRtetra)
Type: cell-based
Details: 10 μM test compound; CHO cells expressing human OX1 receptor; OX-A 1 nM
Description: Measurement of Orexin Receptor Antagonistic Activity CHO cells forcibly expressing human OX1 receptor or human OX2 receptor were seeded in each well of 384 well black transparent bottom plate (BD Falcon) at 7,500 cells/well, and cultured for one day in a 5% CO2 incubator at 37° C. […] The plate was stood for 30 min in a 5% CO2 incubator at 37° C., and further stood at room temperature for 30 min. […]
Classify as follows. Reported Human Orexin1 receptor inhibition (at 10 μM) greater than or equal to 90%: Fulfilled. Reported Human Orexin1 receptor inhibition (at 10 μM) below: Not fulfilled.

Please review the following examples before continuing.
>  <MOLECULE>
Cc1cc(N2CCN(C(=O)c3cc(Cl)ccc3-n3nccn3)C[C@H](C)O2)nc(C)n1 [Example 102]

>  <CAT>
Fulfilled

$$$$
>  <MOLECULE>
Cc1cc(N2CCN(C(=O)c3cc(Cl)ccc3-n3nccn3)CC(C)O2)nc(C)n1 (stereo in doubt) [Example 212]

>  <CAT>
Not fulfilled

$$$$
>  <MOLECULE>
Cc1cc(N2CCN(C(=O)c3ccccc3-n3nccn3)C(C)C(C)O2)nc(C)n1 (centres unmarked) [Example 192]

>  <CAT>
Not fulfilled

$$$$

// inclusive: Human Orexin1 receptor inhibition (at 10 μM) at least 90%? input: Cc1cc(N2C[C@H](C)N(C(=O)c3ccccc3-n3nccn3)CC(C)O2)nc(C)n1 (some centres unmarked) [Example 191] Fulfilled
